TARGET: SOS1 nucleotide exchange of wild-type KRAS (SOS1 catalytic domain residues 564-1049; KRAS residue 1-169) (Homo sapiens)
Sequence (Q07889 564-1049): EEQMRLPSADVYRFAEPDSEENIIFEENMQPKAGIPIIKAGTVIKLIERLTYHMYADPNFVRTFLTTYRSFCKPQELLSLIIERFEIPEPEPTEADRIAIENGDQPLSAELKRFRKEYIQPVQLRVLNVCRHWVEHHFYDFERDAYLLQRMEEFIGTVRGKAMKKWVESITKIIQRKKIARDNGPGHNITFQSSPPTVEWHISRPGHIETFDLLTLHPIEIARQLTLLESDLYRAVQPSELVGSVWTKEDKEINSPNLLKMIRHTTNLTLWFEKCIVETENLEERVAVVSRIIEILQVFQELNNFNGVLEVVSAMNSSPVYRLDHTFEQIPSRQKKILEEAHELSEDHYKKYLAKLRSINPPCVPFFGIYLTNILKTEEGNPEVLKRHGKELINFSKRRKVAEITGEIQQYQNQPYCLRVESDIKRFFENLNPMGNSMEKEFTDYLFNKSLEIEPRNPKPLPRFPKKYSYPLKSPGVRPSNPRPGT
PROTOCOL_NOTES: Inhibition of SOS1 nucleotide exchange activity of KRAS (TR-FRET)
Format: biochemical
APPLIED_CONDITIONS: SOS1 nucleotide exchange of wild-type KRAS; three replicates; four-parameter logistic fit; read-out: TR-FRET IC50
Would you kindly list pIC50 for each of these compounds?
Entry type: numeric. Quantity: pIC50, the -log10 of concentration in molar units.

Give the reported value of pIC50 for this record: Cc1nc(N[C@H](C)c2cc(N)cc(C(F)(F)F)c2)c2cc(C3=CCOCC3)c(=O)n(C)c2n1 [Example 7] 6.81

Supply measured pIC50 of Cc1nc(N[C@H](C)c2cccc(C(F)(F)CO)c2)c2cc(C3=CCOCC3)c(=O)n(C)c2n1 [Example 3] in your reply. 7.46

Name the recorded pIC50 of the compound listed here: CO[C@]1(c2cc3c(N[C@H](C)c4cccc(C(F)F)c4F)ncnc3n(C)c2=O)CCN(C(C)=O)C1 [Example 32-19] 8.05

Give pIC50 for the following compound: C[C@@H](Nc1ncnc2c1cc(C1(N)CCOCC1)c(=O)n2C)c1cccc(C(F)F)c1F [Example 31] 7.50

Determine from records and report pIC50 for C[C@@H](Nc1ncnc2c1cc(C1CC[S+]([O-])CC1)c(=O)n2C)c1cccc(C(F)F)c1F (stereo partly shown) [Example 25] 7.80

Note pIC50 for the compound shown: Cc1nc(N[C@H](C)c2cc(N)cc(C(F)(F)F)c2)c2cc(C3CCNCC3)c(=O)[nH]c2n1 [Example 8] 7.65

// Input: C[C@@H](Nc1ncnc2c1cc(C1(F)CCS(=O)(=O)CC1)c(=O)n2C)c1cccc(C(F)F)c1F [Example 29] . Output its pIC50 only. 7.30

* * *

Test system: SOS1 function in cells: cellular pERK in PC-9 cells (EGFR Ex19Del)
PROTOCOL_NOTES: pERK potency assay in PC-9 cells (AlphaLISA SureFire Ultra p-ERK1/2)
Format: cell-based
APPLIED_CONDITIONS: 1 hour incubation
Exercise: for every item that follows, state its recorded pIC50.
# pIC50 is unitless: minus log10 of the molar concentration; print number only

Tell me its pIC50 on SOS1 function in cells: cellular pERK in PC-9 cells (EGFR Ex19Del): C[C@@H](Nc1ncnc2c1cc(-c1ccc3nonc3c1)c(=O)n2C)c1cccc(C(F)F)c1F 6.48

Name the value of pIC50 reported for C[C@@H](Nc1ncnc2c1cc(C1(N)CCC3(CC1)CS(=O)(=O)C3)c(=O)n2C)c1cccc(C(F)F)c1F when tested on SOS1 function in cells: cellular pERK in PC-9 cells (EGFR Ex19Del). 7.57

State recorded pIC50 with SOS1 function in cells: cellular pERK in PC-9 cells (EGFR Ex19Del), entry COC1(c2cc3c(N[C@H](C)c4cccc5c4OCC5(F)F)ncnc3n(C)c2=O)CCS(=O)(=O)CC1 , no comment. 7.32

Look up and report measured pIC50 (SOS1 function in cells: cellular pERK in PC-9 cells (EGFR Ex19Del)) for the following compound: Cc1c([C@@H](C)Nc2ncnc3c2cc(C2CCS(=O)(=O)CC2)c(=O)n3C)cccc1C(F)(F)F 7.35

Give pIC50 for this entry on SOS1 function in cells: cellular pERK in PC-9 cells (EGFR Ex19Del): CC(=O)N1CCC(OC2CC2)(c2cc3c(N[C@H](C)c4cccc(C(F)F)c4F)ncnc3n(C)c2=O)C1 (some centres unmarked) [Example 32-70] 6.46

Identify measured pIC50 obtained with SOS1 function in cells: cellular pERK in PC-9 cells (EGFR Ex19Del) for C[C@@H](Nc1ncnc2c1cc(C1CCN(S(C)(=O)=O)CC1)c(=O)n2C)c1cccc(C(F)F)c1F . 6.40

Report measured pIC50 on SOS1 function in cells: cellular pERK in PC-9 cells (EGFR Ex19Del); entry: CC(=O)N1CCC(c2cc3c(N[C@H](C)c4cccc(C(F)F)c4F)nc(C)nc3n(C)c2=O)CC1 7.06

Provide pIC50, recorded with SOS1 function in cells: cellular pERK in PC-9 cells (EGFR Ex19Del), of COc1cccc(Cc2cc3c(N[C@H](C)c4cccc(C(F)F)c4F)nc(C)nc3n(C)c2=O)c1OC 5.40

Lab note: SOS1 function in cells: cellular pERK in PC-9 cells (EGFR Ex19Del) assay, enter pIC50 for COC1(c2cc3c(N[C@H](C)c4cccc5c4OCC5(F)F)ncnc3n(C)c2=O)CCN(C(C)=O)CC1 here 7.76

Fetch value of pIC50 on SOS1 function in cells: cellular pERK in PC-9 cells (EGFR Ex19Del) for C[C@@H](Nc1ncnc2c1cc(C1CCN(CC(F)(F)F)CC1)c(=O)n2C)c1cccc(C(F)F)c1F . 6.04

// fetch pIC50; item: C[C@@H](Nc1ncnc2c1cc(C1CCN(CC(F)F)CC1)c(=O)n2C)c1cccc(C(F)F)c1F ; system: SOS1 function in cells: cellular pERK in PC-9 cells (EGFR Ex19Del) 6.44

GET pIC50 | system: SOS1 function in cells: cellular pERK in PC-9 cells (EGFR Ex19Del) | item: CO[C@@]1(c2cc3c(N[C@H](C)c4cccc5c4OCC5(F)F)ncnc3n(C)c2=O)CCN(C(C)=O)C1 6.53

Give measured pIC50 for C[C@@H](Nc1ncnc2c1cc(C1CCN(C3COC3)CC1)c(=O)n2C)c1cccc(C(F)F)c1F (SOS1 function in cells: cellular pERK in PC-9 cells (EGFR Ex19Del)). 6.41

Report the value of pIC50 obtained on SOS1 function in cells: cellular pERK in PC-9 cells (EGFR Ex19Del) for C[C@@H](Nc1ncnc2c1cc(-c1cnc(F)nc1)c(=O)n2C)c1cccc(C(F)F)c1F . 5.92

// fetch pIC50 for CO[C@]1(c2cc3c(N[C@H](C)c4cccc(C(F)F)c4C)ncnc3n(C)c2=O)CCN(C(C)=O)C1 ; system: SOS1 function in cells: cellular pERK in PC-9 cells (EGFR Ex19Del) 6.64

Answer with pIC50 of COC1(c2cc3c(N[C@H](C)c4cccc(C(F)F)c4F)ncnc3n(C)c2=O)CN(C(C)=O)CC12CC2 (some centres unmarked) measured for SOS1 function in cells: cellular pERK in PC-9 cells (EGFR Ex19Del). 6.10

Would you please give the reported pIC50 of Cc1nc(N[C@H](C)c2cccc(C(F)F)c2F)c2cc(C3CCN(C4COC4)CC3)c(=O)n(C)c2n1 with SOS1 function in cells: cellular pERK in PC-9 cells (EGFR Ex19Del)? 6.38

Would you please give the reported pIC50 of Cc1nc(N[C@H](C)c2cccc(C(F)F)c2F)c2cc(-c3cncnc3)c(=O)n(C)c2n1 with SOS1 function in cells: cellular pERK in PC-9 cells (EGFR Ex19Del)? 6.44

Consider the compound COC1(c2cc3c(N[C@@H](C)c4cccc(C(F)F)c4F)ncnc3n(C)c2=O)CCN(C(C)=O)CC1 tested on SOS1 function in cells: cellular pERK in PC-9 cells (EGFR Ex19Del); state its pIC50. 8.09

Report pIC50 under test system SOS1 function in cells: cellular pERK in PC-9 cells (EGFR Ex19Del) for C[C@@H](Nc1ncnc2c1cc(C1CCS(=O)(=O)CC1)c(=O)n2C)c1cccc(C(F)F)c1F . 7.47

// fetch pIC50 for COC1(c2cc3c(N[C@H](C)c4cccc(C(F)F)c4F)ncnc3n(C)c2=O)CC2(COC2)C1 ; system: SOS1 function in cells: cellular pERK in PC-9 cells (EGFR Ex19Del) 6.81

Provide measured pIC50 on SOS1 function in cells: cellular pERK in PC-9 cells (EGFR Ex19Del) for COC1(c2cc3c(N[C@H](C)c4cccc(C(F)F)c4F)ncnc3n(C)c2=O)CCN(C(C)=O)[C@H]1C (some centres unmarked) please. 6.70

Would you please give the reported pIC50 of C[C@@H](Nc1ncnc2c1cc(-c1cncnc1)c(=O)n2C)c1cccc(C(F)F)c1F with SOS1 function in cells: cellular pERK in PC-9 cells (EGFR Ex19Del)? 6.61

Please look at COC1(c2cc3c(N[C@H](C)c4cccc(C(F)F)c4F)ncnc3n(C)c2=O)CCC2(CC1)CS(=O)(=NC1CC1)C2 (some centres unmarked) and tell me its recorded pIC50 on SOS1 function in cells: cellular pERK in PC-9 cells (EGFR Ex19Del). 6.49

State measured pIC50 of the compound COC1(c2cc3c(N[C@H](C)c4cccc(C(F)F)c4F)ncnc3n(C)c2=O)CCC2(CC1)CN(C(C)=O)C2 with SOS1 function in cells: cellular pERK in PC-9 cells (EGFR Ex19Del). 7.31

Answer briefly: pIC50 recorded on SOS1 function in cells: cellular pERK in PC-9 cells (EGFR Ex19Del) for COC1(c2cc3c(N[C@H](C)c4cccc(C(F)F)c4C)ncnc3n(C)c2=O)CCS(=O)(=O)CC1 7.08

State pIC50 (SOS1 function in cells: cellular pERK in PC-9 cells (EGFR Ex19Del)) of CCc1c(C(F)F)cccc1[C@@H](C)Nc1ncnc2c1cc(C1CCN(C(C)=O)CC1)c(=O)n2C . 6.45

Enter pIC50 (test system SOS1 function in cells: cellular pERK in PC-9 cells (EGFR Ex19Del)) for COC1(c2cc3c(N[C@H](C)c4cccc(C(F)F)c4F)ncnc3n(C)c2=O)CCC2(CC1)COC2 6.90

Recall the reported pIC50 of CC(=O)N1CCC(OC2CC2)(c2cc3c(N[C@H](C)c4cccc(C(F)F)c4F)ncnc3n(C)c2=O)C1 (some centres unmarked) [Example 32-71] on SOS1 function in cells: cellular pERK in PC-9 cells (EGFR Ex19Del) and write it down. 7.38
